Relative activity (%), EC50 COM701/EC50 antibody values for the binders below.
Molecular target: T1, human CD112R on Jurkat CD112R effector cells (human, UniProt Q6DKI7 1-326)
T1 sequence (looked up): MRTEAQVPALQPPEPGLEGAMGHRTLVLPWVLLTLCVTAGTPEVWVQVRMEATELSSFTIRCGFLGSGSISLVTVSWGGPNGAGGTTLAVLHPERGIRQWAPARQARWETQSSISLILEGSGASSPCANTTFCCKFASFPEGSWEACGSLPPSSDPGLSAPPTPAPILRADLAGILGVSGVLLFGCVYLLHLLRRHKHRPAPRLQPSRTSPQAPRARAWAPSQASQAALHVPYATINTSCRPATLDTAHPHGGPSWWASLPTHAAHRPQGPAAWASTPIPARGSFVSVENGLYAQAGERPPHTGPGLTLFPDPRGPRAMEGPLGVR
Experiment: cell-based or functional assay
observed-property: Relative activity (%), EC50 COM701/EC50 antibody

Hu54 (antibody, IgG4, V domains shown, humanized IgG4) VH: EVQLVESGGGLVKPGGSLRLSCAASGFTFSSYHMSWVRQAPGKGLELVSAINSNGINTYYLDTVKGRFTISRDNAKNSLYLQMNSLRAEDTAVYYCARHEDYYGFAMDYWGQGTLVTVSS VL: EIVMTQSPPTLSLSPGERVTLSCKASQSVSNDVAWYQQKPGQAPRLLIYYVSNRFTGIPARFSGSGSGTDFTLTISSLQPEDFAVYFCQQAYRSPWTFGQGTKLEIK :: 300
Hu5 (antibody, IgG4, V domains shown, humanized IgG4; also called Hu-05) VH: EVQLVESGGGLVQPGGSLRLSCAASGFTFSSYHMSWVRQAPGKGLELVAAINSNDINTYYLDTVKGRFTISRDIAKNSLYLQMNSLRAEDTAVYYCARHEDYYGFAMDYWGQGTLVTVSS VL: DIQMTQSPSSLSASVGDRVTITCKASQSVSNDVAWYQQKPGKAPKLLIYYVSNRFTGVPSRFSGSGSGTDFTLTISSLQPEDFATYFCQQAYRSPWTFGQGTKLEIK :: 148
Hu33 (antibody, IgG4, V domains shown, humanized IgG4) VH: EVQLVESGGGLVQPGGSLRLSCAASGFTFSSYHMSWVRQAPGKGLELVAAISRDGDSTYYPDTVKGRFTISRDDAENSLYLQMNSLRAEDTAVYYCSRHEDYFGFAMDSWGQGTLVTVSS VL: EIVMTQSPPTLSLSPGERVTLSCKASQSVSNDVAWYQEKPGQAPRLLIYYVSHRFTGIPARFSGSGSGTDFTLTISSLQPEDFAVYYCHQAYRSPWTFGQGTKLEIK :: 157
